- Tested on: MPNST multicellular tumor spheroids, viability % test/control
- procedure-summary: Anticancer human tumor MPNST cell line growth inhibition
- condition-description: second compound 31.6 µM; first compound 3.16 µM; hits give low values
- Procedure: Multicellular complex tumor spheroid response to DNA repair inhibitors in combination with DNA-damaging drugs This study explores the anticancer activities of DNA-damaging drugs and inhibitors of DNA damage repair, both as single agents and in combinations. […] Twenty-six patient-derived or established malignant cell lines were evaluated representing sarcoma, melanoma, small cell lung cancer (SCLC), non-small cell lung cancer (NSCLC), as well as bladder, ovarian and pancreatic cancers. […]
Measured viability, T/C, listed per entry.
All answers are understood in %, so give the number only.

// solved cases for viability, T/C follow
In [3]: df
Out[3]:
                                   molecule  unit_label  number
0  CC(C)n1c(=O)n(C)c2cnc3cc(F)c(-c4ccc(OCCCN5CCCCC5)nc4)cc3c21 + Cn1nnc2c(C(N)=O)ncn2c1=O           %    83.7
1  COc1cc(C)[nH]c(=O)c1CN1CCc2c(Cl)cc(C(OC)C3COC3)c(Cl)c2C1=O (stereo unspecified) + Cn1nnc2c(C(N)=O)ncn2c1=O           %     103
2  COc1ccc([C@@H](O)c2cc(-c3ncnc4cc(N5CCOCC5)ccc34)c(F)cc2Cl)nn1 + Cn1nnc2c(C(N)=O)ncn2c1=O           %    40.4

Asked: Item CC1COCCN1c1cc(-c2ccnn2C)c2ccnc(-c3ccn[nH]3)c2n1 (stereo unspecified) + Cn1nnc2c(C(N)=O)ncn2c1=O has what recorded viability, T/C?
Given back: 32.2

Asked: Then [2H]c1nc(C)nc([2H])c1-c1cc(NC[C@@H](C)c2cccc3c(C(=O)NC)ccnc23)ncn1 + Cn1nnc2c(C(N)=O)ncn2c1=O ?
Given back: 78.7

Asked: Ok, now Cc1cc(C)c(CNC(=O)c2cc(-c3ccc(CN4CCOCC4)cc3)cc3c2cnn3C2CCCC2)c(=O)[nH]1 + Cn1nnc2c(C(N)=O)ncn2c1=O
Given back: 103

* * *

Here the recorded viability, T/C is given for each entry.
- Test system: MPNST multicellular tumor spheroids, viability % test/control
- procedure-summary: Anticancer human tumor MPNST cell line growth inhibition;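 further: luminescence signal used as surrogate for viable cell amount; spheroids exposed to agents for seven days after three days of growth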
- condition-description: second compound 0.0003 µM; first compound 1 µM; hits give low values
Write the value in % as a bare number.

compound	parameter	number
[2H]c1nc(C)nc([2H])c1-c1cc(NC[C@@H](C)c2cccc3c(C(=O)NC)ccnc23)ncn1 + COc1cc2c(cc1O)CCNC21CSC2c3c(OC(C)=O)c(C)c4c(c3C(COC1=O)N1C(O)C3Cc5cc(C)c(OC)c(O)c5C(C21)N3C)OCO4	viability, T/C	95.7

Asked: Look at this compound and give its reported viability, T/C. Cc1cc(C)c(CNC(=O)c2cc(-c3ccc(CN4CCOCC4)cc3)cc3c2cnn3C2CCCC2)c(=O)[nH]1 + COc1cc2c(cc1O)CCNC21CSC2c3c(OC(C)=O)c(C)c4c(c3C(COC1=O)N1C(O)C3Cc5cc(C)c(OC)c(O)c5C(C21)N3C)OCO4
Given back: 98

Asked: Record: CC1COCCN1c1cc(-c2ccnn2C)c2ccnc(-c3ccn[nH]3)c2n1 (stereo unspecified) + COc1cc2c(cc1O)CCNC21CSC2c3c(OC(C)=O)c(C)c4c(c3C(COC1=O)N1C(O)C3Cc5cc(C)c(OC)c(O)c5C(C21)N3C)OCO4
Given back: 36.9

Asked: Quick one: COc1ccc([C@@H](O)c2cc(-c3ncnc4cc(N5CCOCC5)ccc34)c(F)cc2Cl)nn1 + COc1cc2c(cc1O)CCNC21CSC2c3c(OC(C)=O)c(C)c4c(c3C(COC1=O)N1C(O)C3Cc5cc(C)c(OC)c(O)c5C(C21)N3C)OCO4
Given back: 28.8

Asked: Quick one: COc1cc(C)[nH]c(=O)c1CN1CCc2c(Cl)cc(C(OC)C3COC3)c(Cl)c2C1=O (stereo unspecified) + COc1cc2c(cc1O)CCNC21CSC2c3c(OC(C)=O)c(C)c4c(c3C(COC1=O)N1C(O)C3Cc5cc(C)c(OC)c(O)c5C(C21)N3C)OCO4
Given back: 82.5

Asked: Try this compound next: CC(C)n1c(=O)n(C)c2cnc3cc(F)c(-c4ccc(OCCCN5CCCCC5)nc4)cc3c21 + COc1cc2c(cc1O)CCNC21CSC2c3c(OC(C)=O)c(C)c4c(c3C(COC1=O)N1C(O)C3Cc5cc(C)c(OC)c(O)c5C(C21)N3C)OCO4
Given back: 67.5

* * *

Measured viability, T/C, listed per entry for reference.
- Tested on: MPNST multicellular tumor spheroids, viability % test/control
- procedure-summary: Anticancer human tumor MPNST cell line growth inhibition;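 further: luminescence signal used as surrogate for viable cell amount; spheroids exposed to agents for seven days after three days of growth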
- condition-description: second compound 10 µM; first compound 0.316 µM; hits give low values
Write the number in % without appending the unit.

In [3]: df
Out[3]:
                                   compound  number
0  COc1cc(C)[nH]c(=O)c1CN1CCc2c(Cl)cc(C(OC)C3COC3)c(Cl)c2C1=O (stereo unspecified) + Cn1nnc2c(C(N)=O)ncn2c1=O     101
1  CC1COCCN1c1cc(-c2ccnn2C)c2ccnc(-c3ccn[nH]3)c2n1 (stereo unspecified) + Cn1nnc2c(C(N)=O)ncn2c1=O    45.2

Asked: Which viability, T/C is reported for this compound? [2H]c1nc(C)nc([2H])c1-c1cc(NC[C@@H](C)c2cccc3c(C(=O)NC)ccnc23)ncn1 + Cn1nnc2c(C(N)=O)ncn2c1=O
Given back: 108

Asked: Continue with COc1ccc([C@@H](O)c2cc(-c3ncnc4cc(N5CCOCC5)ccc34)c(F)cc2Cl)nn1 + Cn1nnc2c(C(N)=O)ncn2c1=O
Given back: 73

Asked: Further, for Cc1cc(C)c(CNC(=O)c2cc(-c3ccc(CN4CCOCC4)cc3)cc3c2cnn3C2CCCC2)c(=O)[nH]1 + Cn1nnc2c(C(N)=O)ncn2c1=O ?
Given back: 107

Asked: Thanks! And CC(C)n1c(=O)n(C)c2cnc3cc(F)c(-c4ccc(OCCCN5CCCCC5)nc4)cc3c21 + Cn1nnc2c(C(N)=O)ncn2c1=O ?
Given back: 82.4

* * *

- Test system: MPNST multicellular tumor spheroids, viability % test/control
- procedure-summary: Anticancer human tumor MPNST cell line growth inhibition;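 further: luminescence signal used as surrogate for viable cell amount; spheroids exposed to agents for seven days after three days of growth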
- condition-description: second compound 10 µM; first compound 0.949 µM; hits give low values
Reported viability, T/C values follow for various compounds

# annotated cases, reported viability, T/C shown
                                   compound       parameter  result
0  CNCc1ccc(-c2cc(-c3nc(-c4ccc(S(=O)(=O)C(C)C)cc4)cnc3N)on2)cc1 + Cn1nnc2c(C(N)=O)ncn2c1=O  viability, T/C   71.8%
1  Cc1sc2c(c1C)C(c1ccc(Cl)cc1)=NC(CC(=O)Nc1ccc(O)cc1)c1nnc(C)n1-2 (centres undefined) + Cn1nnc2c(C(N)=O)ncn2c1=O  viability, T/C   50.7%
2  O=C(c1cc(Cc2n[nH]c(=O)c3ccccc23)ccc1F)N1CCN(C(=O)C2CC2)CC1 + Cn1nnc2c(C(N)=O)ncn2c1=O  viability, T/C   87.6%

Next compound, please.
Asked: Which viability, T/C reading was recorded for the compound Cn1ncnc1[C@H]1c2n[nH]c(=O)c3cc(F)cc(c23)N[C@@H]1c1ccc(F)cc1 + Cn1nnc2c(C(N)=O)ncn2c1=O ?
Given back: 51.7%

* * *

- Test system: MPNST multicellular tumor spheroids, viability % test/control
- procedure-summary: Anticancer human tumor MPNST cell line growth inhibition;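 further: luminescence signal used as surrogate for viable cell amount; spheroids exposed to agents for seven days after three days of growth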
- condition-description: second compound 100 µM; first compound 0.316 µM; hits give low values
parameter: viability, T/C

Previously resolved entries follow.
In [3]: df
Out[3]:
                                   compound  result
0  COc1ccc([C@@H](O)c2cc(-c3ncnc4cc(N5CCOCC5)ccc34)c(F)cc2Cl)nn1 + Cn1nnc2c(C(N)=O)ncn2c1=O   68.4%
1  COc1cc(C)[nH]c(=O)c1CN1CCc2c(Cl)cc(C(OC)C3COC3)c(Cl)c2C1=O (stereo unspecified) + Cn1nnc2c(C(N)=O)ncn2c1=O   70.7%
2  CC(C)n1c(=O)n(C)c2cnc3cc(F)c(-c4ccc(OCCCN5CCCCC5)nc4)cc3c21 + Cn1nnc2c(C(N)=O)ncn2c1=O   74.2%
3  CC1COCCN1c1cc(-c2ccnn2C)c2ccnc(-c3ccn[nH]3)c2n1 (stereo unspecified) + Cn1nnc2c(C(N)=O)ncn2c1=O   46.1%
4  Cc1cc(C)c(CNC(=O)c2cc(-c3ccc(CN4CCOCC4)cc3)cc3c2cnn3C2CCCC2)c(=O)[nH]1 + Cn1nnc2c(C(N)=O)ncn2c1=O   96.9%

Attention now shifts to the item below.
Asked: Give viability, T/C (MPNST multicellular tumor spheroids, viability % test/control) of the following compound: [2H]c1nc(C)nc([2H])c1-c1cc(NC[C@@H](C)c2cccc3c(C(=O)NC)ccnc23)ncn1 + Cn1nnc2c(C(N)=O)ncn2c1=O
Given back: 113%
